molecular target: T1, CD22 on cynomolgus monkey peripheral blood B cells (cynomolgus monkey (Macaca fascicularis)); test: FACS, cynomolgus PBMC, CD20+ B cells, antibody 10 nM
T1 construct: whole, on cells; also called cynomolgus monkey B cells
The entries below come with measured Proportion of chimeric antibody positive cells to B cells (%) values attached.
Quick reminder: number only, in %, skip the unit.

F2.42.9 (antibody, human IgG1, lambda, V domains shown, human-murine chimeric IgG1 lambda; VL name legible) VH: QVTLKESGPGILQPSQTLSLTCSFSGFSLSTFDRGVGWIRQPSGKGLEWLAHIWWNDKKFYNPVLKSRLTISKDTSKNQVFLTIANVDSADTATYSCARIVWDKYYFDYWGQGIPLTVSS VL: QLVLTQSSSASFSLGASAKLTCTLSSQHSAYTIEWYQQQPLKPPKFVMDLKKDGSHSTGDGIPARFSGSSSGADRYLTISNIQPEDEAIYICGVGDTIKEQYVFGGGTKVTVLG
20
F1.257.3 (antibody, human IgG1, kappa, V domains shown, human-murine chimeric IgG1 kappa; VL name legible) VH: QVQLQQSGPELARPGASVKLSCKASGYTFTSYGISWVKQRTGQDLEWIGEIYPKLGTTYYNEKFKDKATLTTDRSSSTAYMALRSLTSEDSAVYFCACPHYYATRGGDYWGQGTTLTVSS VL: EIVLTQSPATLSVTPGDSVTFSCRASQSISNHLHWYQQKSHESPRLLIRYASQSISGIPSRFSGSGSGTDFTLSLSSVETEDFGVYFCQQSHSWPYTFGGGTKLEIAR
20

From here, focus on the item given below.
Lab note: measured Proportion of chimeric antibody positive cells to B cells (%) of F2.104.10 (antibody, human IgG1, lambda, V domains shown, human-murine chimeric IgG1 lambda) VH: EVQLVESGGGFVKPGGSLKLSCAASGFTFSDYGMNWFRQAPEKGLEWVAYISRGSHTIYYADTVKGRFTISRDNAENTLFLQMTSLRSNDTAMYYCVRMAGYYAMDYWGQGTSLTVSS VL: QLVLTQSSSASFSLGASAKLTCTLSSQHSSYIIEWYQQQPLKPPKYVMEVKKDGSHSTGDGIPDRFSGSSSGADRYLSISNIQSEDEAIYICGVGDTIKEQFVYVFGGGTKVTVLG was 21
